This listing pairs molecules with measured pEC50.
target: human cannabinoid CB2 receptor (Homo sapiens); construct: expressed in transfected cells; host or cells: Saccharomyces cerevisiae strain MMY23 (cassette integrated at the ura3 locus; chimeric Gpa1/Gαi3); test: Cannabinoid CB2 receptor agonist activity, yeast (Saccharomyces cerevisiae) cells expressing the receptor, FDGlu fluorescence; assay type: cell-based; conditions: yeast agonist assay; read-out: EC50 at the cloned human cannabinoid CB2 receptor
pEC50: −log10 of the molar value. Structures can show the parent of a compound that is named as a salt.

Below are worked cases with known answers.
FC(F)(F)c1nc(Nc2cccc(Cl)c2)ncc1CNCc1cccnc1 | > 6.52
CC(C)c1nc(Nc2cccc(Cl)c2)ncc1CNCC1CC1 [Example 7, hydrochloride] | > 6.52
O=S1(=O)CCC(NCc2cnc(Nc3cccc(Cl)c3)nc2C(F)(F)F)CC1 | > 6.52
CC(C)CNCc1cnc(Nc2cccc(Cl)c2)nc1C(F)(F)F [Example 11, formate] | > 6.52
COCCNCc1cnc(Nc2cccc(Cl)c2)nc1C(C)C | > 6.52
FC(F)(F)c1nc(Nc2cccc(Cl)c2)ncc1CNC[C@H]1CCCO1 | 6.00 to 6.52
CC(O)CNCc1cnc(Nc2cccc(Cl)c2)nc1C(F)(F)F (stereo not drawn) | 6.00 to 6.52
N#Cc1cccc(Nc2ncc(CNC3CC3)c(C(F)(F)F)n2)c1 | 6.00 to 6.52

-- ask Entry FC(F)(F)c1nc(Nc2cccc(Cl)c2)ncc1CN1CCCC1 [Example 40, formate] has what pEC50?
-- reply 6.00 to 6.52

-- ask Repeat for the following molecule: COCCNCc1cnc(Nc2ccc(Cl)cc2Cl)nc1C(F)(F)F
-- reply > 6.52

-- ask Similarly, FC(F)(F)c1nc(Nc2cccc(Cl)c2)ncc1CNC1CCOCC1 [Example 16, formate] ?
-- reply > 6.52

-- ask // query: CC(C)c1nc(Nc2cccc(Cl)c2)ncc1CNCC1CCCC1 [Example 8, hydrochloride]
-- reply > 6.52

-- ask How about this molecule: CC(C)CCNCc1cnc(Nc2cccc(F)c2)nc1C(F)(F)F
-- reply 6.00 to 6.52

###

target: human cannabinoid CB1 receptor (Homo sapiens, UniProt P21554); construct: expressed in transfected cells; host or cells: Saccharomyces cerevisiae strain MMY23 (cassette integrated at the ura3 locus; chimeric Gpa1/Gαi3); assay: Cannabinoid CB1 receptor agonist activity, yeast (Saccharomyces cerevisiae) cells expressing the receptor, FDGlu fluorescence; assay type: cell-based
Sequence (P21554 whole entry): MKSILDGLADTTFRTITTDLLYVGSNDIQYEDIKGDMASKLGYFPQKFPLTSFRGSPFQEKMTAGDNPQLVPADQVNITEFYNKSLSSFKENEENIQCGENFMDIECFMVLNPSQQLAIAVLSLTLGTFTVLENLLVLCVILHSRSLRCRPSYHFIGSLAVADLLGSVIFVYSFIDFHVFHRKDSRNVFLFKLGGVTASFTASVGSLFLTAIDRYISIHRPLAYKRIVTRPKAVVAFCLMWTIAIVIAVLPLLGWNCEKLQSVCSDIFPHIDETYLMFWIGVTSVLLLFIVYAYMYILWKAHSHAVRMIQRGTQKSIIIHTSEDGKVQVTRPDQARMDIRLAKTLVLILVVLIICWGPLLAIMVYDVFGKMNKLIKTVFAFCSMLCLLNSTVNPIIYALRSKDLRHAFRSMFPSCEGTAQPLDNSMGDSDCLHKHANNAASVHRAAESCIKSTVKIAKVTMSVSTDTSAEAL
reported_metric: EC50

-- ask Quick one: EC50 for CC(NCC1CCOCC1)c1cnc(Nc2ccc(Cl)cc2Cl)nc1C(F)(F)F (stereo not shown) ?
-- reply 300 to 1000 nM

###

target: human cannabinoid CB2 receptor (Homo sapiens, UniProt P34972); construct: expressed in transfected cells; host or cells: Saccharomyces cerevisiae strain MMY23 (cassette integrated at the ura3 locus; chimeric Gpa1/Gαi3); assay: Cannabinoid CB2 receptor agonist activity, yeast (Saccharomyces cerevisiae) cells expressing the receptor, FDGlu fluorescence; assay type: cell-based; conditions: yeast agonist assay; read-out: EC50 at the cloned human cannabinoid CB2 receptor
Sequence (P34972 whole entry): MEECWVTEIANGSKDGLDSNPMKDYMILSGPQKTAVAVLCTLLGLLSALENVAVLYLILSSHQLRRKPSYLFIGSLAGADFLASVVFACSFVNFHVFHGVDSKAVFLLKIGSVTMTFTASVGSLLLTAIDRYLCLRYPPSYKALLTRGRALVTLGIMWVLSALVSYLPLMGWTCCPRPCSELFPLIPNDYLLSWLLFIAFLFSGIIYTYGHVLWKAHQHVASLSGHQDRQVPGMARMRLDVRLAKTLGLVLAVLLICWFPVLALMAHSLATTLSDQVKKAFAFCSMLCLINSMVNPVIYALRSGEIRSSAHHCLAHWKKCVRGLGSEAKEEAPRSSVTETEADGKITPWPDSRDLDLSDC
reported_metric: EC50

FC(F)(F)c1nc(Nc2cccc(Cl)c2)ncc1CNCC1CC1 | < 0.3 µM
Fc1cccc(Nc2ncc(CN3CCOCC3)c(C(F)(F)F)n2)c1 | 0.3 to 1 µM
FC(F)(F)c1nc(Nc2cccc(Cl)c2)ncc1CNCC1CCCC1 | < 0.3 µM

-- ask Fill in: EC50 of CCCCN(C)Cc1cnc(Nc2cccc(Cl)c2)nc1C(F)(F)F is ___
-- reply 0.3 to 1 µM

-- ask Cool, now FC(F)(F)c1nc(Nc2ccc(Cl)cc2Cl)ncc1CNCC1CCC1
-- reply < 0.3 µM

-- ask Now this one: CC(C)CNCc1cnc(Nc2cccc(Cl)c2)nc1C(C)(C)C
-- reply < 0.3 µM

-- ask What do you get for FC(F)(F)c1nc(Nc2cccc(Cl)c2)ncc1CNC1CC1 ?
-- reply < 0.3 µM

-- ask Here is the next compound: CN(Cc1cnc(Nc2cccc(Cl)c2)nc1C(F)(F)F)CC1CCOCC1
-- reply 0.3 to 1 µM

-- ask What do you get for CC(C)c1nc(Nc2cccc(Cl)c2)ncc1CN1CCOCC1 ?
-- reply < 0.3 µM

###

Target: human cannabinoid CB2 receptor (Homo sapiens)
Construct: expressed in transfected cells; host or cells: Saccharomyces cerevisiae strain MMY23 (cassette integrated at the ura3 locus; chimeric Gpa1/Gαi3)
Test: Cannabinoid CB2 receptor agonist activity, yeast (Saccharomyces cerevisiae) cells expressing the receptor, FDGlu fluorescence
Assay type: cell-based
Conditions: read-out: efficacy (Emax relative to HU210) at the cloned human cannabinoid CB2 receptor
Procedure: The cannabinoid CB2 receptor agonist activity of the compounds of formula (I) was determined in accordance with the following experimental method. […] Agonists were prepared as 10 mM stocks in DMSO. […] Fluorescence was plotted against compound concentration and iteratively curve fitted using a four parameter fit to generate a concentration effect value. Efficacy (Emax) was calculated from the equation […]
Structures can show the parent of a compound that is named as a salt.
# key: entry, value: Emax

CC(C)CCNCc1cnc(Nc2cccc(F)c2)nc1C(F)(F)F | > 50%
CC(C)CNCc1cnc(Nc2ccc(Cl)cc2Cl)nc1C(F)(F)F | > 50%
Fc1ccc(Nc2ncc(CNCC3CC3)c(C(F)(F)F)n2)cc1Cl [Example 13, hydrochloride] | > 50%
N#Cc1cccc(Nc2ncc(CNC3CC3)c(C(F)(F)F)n2)c1 | > 50%
CC(C)(C)CNCc1cnc(Nc2cccc(Cl)c2)nc1C(F)(F)F | > 50%

-- ask Can you look up Emax on human cannabinoid CB2 receptor (Homo sapiens) for Fc1cc(CNCc2cnc(Nc3cccc(Cl)c3)nc2C(F)(F)F)ccn1 [Example 96, formate] ?
-- reply > 50%

-- ask Repeat with Fc1cccc(Nc2ncc(CNCC3CC3)c(C(F)(F)F)n2)c1
-- reply > 50%

-- ask Proceed to FC(F)(F)c1nc(Nc2cccc(Cl)c2)ncc1CN1CCCC1 [Example 40, formate]
-- reply > 50%

-- ask Thanks! And CN(Cc1cnc(Nc2cccc(Cl)c2)nc1C(F)(F)F)CC1CCC1 ?
-- reply > 50%

-- ask Now the compound FC(F)(F)c1nc(Nc2cccc(Cl)c2)ncc1CNC[C@H]1CCCO1
-- reply > 50%

-- ask Do the same for FC(F)(F)c1nc(Nc2cccc(Cl)c2)ncc1CNC1CCCCC1 please
-- reply > 50%

-- ask Same thing, different compound: Fc1cccc(Nc2ncc(CN3CCOCC3)c(C(F)(F)F)n2)c1
-- reply > 50%

-- ask Entry FC(F)(F)c1nc(Nc2ccc(Cl)cc2Cl)ncc1CN1CCOCC1 please
-- reply > 50%

-- ask Now try CC(NC1CC1)c1cnc(Nc2cccc(F)c2)nc1C(F)(F)F (stereo not shown) .
-- reply > 50%

-- ask What about this compound? CCCCN(C)Cc1cnc(Nc2cccc(Cl)c2)nc1C(F)(F)F
-- reply > 50%

-- ask Also CC(C)CNCc1cnc(Nc2cccc(C#N)c2)nc1C(F)(F)F [Example 59, formate] , if possible.
-- reply > 50%

-- ask Entry to check: O=S1(=O)CCC(NCc2cnc(Nc3cccc(Cl)c3)nc2C(F)(F)F)CC1
-- reply > 50%

-- ask Now this one: CC(c1cnc(Nc2cccc(Cl)c2)nc1C(F)(F)F)N1CCOCC1 (stereo not shown)
-- reply > 50%

-- ask Subsequent entry: CC(O)CNCc1cnc(Nc2cccc(Cl)c2)nc1C(F)(F)F (stereo not shown)
-- reply > 50%

###

Biological target: human cannabinoid CB2 receptor (Homo sapiens)
Construct: expressed in transfected cells; host or cells: Saccharomyces cerevisiae strain MMY23 (cassette integrated at the ura3 locus; chimeric Gpa1/Gαi3)
Assay: Cannabinoid CB2 receptor agonist activity, yeast (Saccharomyces cerevisiae) cells expressing the receptor, FDGlu fluorescence
Type: cell-based
Procedure: The cannabinoid CB2 receptor agonist activity of the compounds of formula (I) was determined in accordance with the following experimental method. […] Agonists were prepared as 10 mM stocks in DMSO. […] Fluorescence was plotted against compound concentration and iteratively curve fitted using a four parameter fit to generate a concentration effect value. Efficacy (Emax) was calculated from the equation […]
Measured EC50 accompanies every entry in the list below.

Below are worked cases with known answers.
FC(F)(F)c1nc(Nc2ccc(Cl)cc2Cl)ncc1CN1CCOCC1 | < 300 nM
FC(F)(F)c1nc(Nc2cccc(Cl)c2)ncc1CNC1CCC1 | < 300 nM
FC(F)(F)c1nc(Nc2cccc(Cl)c2)ncc1CNC1CCCCC1 | 300 to 1000 nM
CC(NC1CC1)c1cnc(Nc2cccc(F)c2)nc1C(F)(F)F (centres unmarked) | < 300 nM

--- query ---
-- ask Any idea what its EC50 is? The compound is CC(C)(C)CNCc1cnc(Nc2ccc(Cl)cc2Cl)nc1C(F)(F)F
-- reply < 300 nM

###

molecular target: human cannabinoid CB1 receptor (Homo sapiens, UniProt P21554); construct: expressed in transfected cells; host or cells: Saccharomyces cerevisiae strain MMY23 (cassette integrated at the ura3 locus; chimeric Gpa1/Gαi3); assay: Cannabinoid CB1 receptor agonist activity, yeast (Saccharomyces cerevisiae) cells expressing the receptor, FDGlu fluorescence; format: cell-based; conditions: yeast agonist assay; read-out: EC50 at the cloned human CB1 receptor
pEC50: −log10 of the molar value. Counter-ions that a name gives are not always drawn.
reported_metric: pEC50

-- ask Form field: reported pEC50 of CC(NCC1CCCCC1)c1cnc(Nc2cccc(Cl)c2)nc1C(F)(F)F (stereo not shown) [Example 89, formate]
-- reply 6.00 to 6.52
